Entries annotated with measured Binding affinity ranking
- System: MDA-9 PDZ12 tandem domain (PDZ1) (Homo sapiens, UniProt O00560)
- Construct: the MDA-9/Syntenin construct used for the screen contains both PDZ domains; made in house
- Sequence (O00560 110-274): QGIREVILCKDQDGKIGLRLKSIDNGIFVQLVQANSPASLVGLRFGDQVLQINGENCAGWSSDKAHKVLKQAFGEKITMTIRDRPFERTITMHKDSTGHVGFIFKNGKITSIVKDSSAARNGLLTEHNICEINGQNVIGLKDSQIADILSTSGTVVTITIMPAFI
- Experiment notes: NMR [15N,1H] HSQC chemical shift change and titration binding
- Experimental setup: chemical shift change (DPPM) of backbone amide of residue 147, 50 μM PDZ12, compound at 1:1 molar ratio

Given the entry Nc1ccc(NC(=O)c2nc3[nH]c4c(c(=O)n3n2)CCC4)cc1 [112G11] , report its measured Binding affinity ranking.
2 (2 for DPPM 0.02-0.04)

----------
- System: MDA-9 PDZ12 tandem domain (PDZ1) (Homo sapiens)
- Construct: the MDA-9/Syntenin construct used for the screen contains both PDZ domains; made in house
- Experiment notes: NMR [15N,1H] HSQC chemical shift change and titration binding
- Experimental setup: chemical shift change (DPPM) of backbone amide of residue 147, 50 μM PDZ12, compound at 1:1 molar ratio
Known Binding affinity ranking of a selection of molecules

Sample answers from the record:
Binding affinity ranking lookup needed for `COc1cccc(NC(=O)c2nc3[nH]c(C)cc(=O)n3n2)c1` , thanks.
3 (3 for DPPM 0.04-0.06)

Which Binding affinity ranking is listed for `O=c1c2c([nH]c3nc(CCc4ccccc4)nn13)CCC2` ?
3 (3 for DPPM 0.04-0.06)

***
Fill in the blank: the reported Binding affinity ranking of `Cc1cc(=O)n2nc(COc3ccccc3)nc2[nH]1` is ____.
4 (4 for DPPM 0.06-0.08)

Query: Binding affinity ranking; subject: `O=c1[nH]c2sc3c(c2c2ncnn12)CCCC3`
1 (1 for DPPM 0.00-0.02)

// lookup Binding affinity ranking for `Cc1cc(=O)n2nc(SCc3ccccc3)nc2[nH]1`
4 (4 for DPPM 0.06-0.08)

----------
Binding affinity ranking listing for selected compounds.
- System: MDA-9 PDZ12 tandem domain (PDZ1) (Homo sapiens, UniProt O00560)
- Construct: the MDA-9/Syntenin construct used for the screen contains both PDZ domains; made in house
- Experiment notes: NMR [15N,1H] HSQC chemical shift change and titration binding
- Experimental setup: chemical shift change (DPPM) of backbone amide of residue 147, 50 μM PDZ12, compound at 1:1 molar ratio

Given the compound `CCCc1cc(=O)n2nc(COc3ccccc3)nc2[nH]1` , what is its reported Binding affinity ranking?
1 (1 for DPPM 0.00-0.02)

Could you now look at the following compound, please?
Quick one: Binding affinity ranking of `Cc1cc(=O)n2nc(C(=O)Nc3ccc(O)cc3)nc2[nH]1` ?
2 (2 for DPPM 0.02-0.04)

----------
Entries and their measured Binding affinity ranking follow.
- System: MDA-9 PDZ12 tandem domain (PDZ1) (Homo sapiens, UniProt O00560)
- Construct: the MDA-9/Syntenin construct used for the screen contains both PDZ domains; made in house
- Experiment notes: NMR [15N,1H] HSQC chemical shift change and titration binding
- Experimental setup: chemical shift change (DPPM) of backbone amide of residue 147, 50 μM PDZ12, compound at 1:1 molar ratio
- Protocol: FIGS. 4A-4E. FIG. 4A. […] FIG. 4B. Superposition of 2D [^15N, ^1H]-HSQC spectra of 50 μM MDA-9 PDZ12 tandem domain in the absence and presence of 350 μM 113B7. FIG. 4C. Binding curve and representative spectra for the titration of 113B7 against MDA-9 PDZ12 tandem domain. Top: Zoom of box region in FIG. 4B after titrating 113B7 into Mda9 PDZ, tandem domain. […] Bottom: Titration curve of 113B7 for residue A147. […] FIG. 4D. […] FIG. 4E. […]

# Binding affinity ranking lookup, item Cc1cc(O)n2nc(C(=O)Nc3ccc(O)cc3)nc2n1 [112F1]
1 (1 for DPPM 0.00-0.02)

Given the compound Cc1cc(=O)n2nc(C(=O)Nc3ccc4c(c3)OCCO4)nc2[nH]1 [cmpd7] , what is its reported Binding affinity ranking?
2 (2 for DPPM 0.02-0.04)

Okay, next one:
Return reported Binding affinity ranking; argument: Cc1cc(=O)n2nc(NCc3ccccc3)nc2[nH]1 [cmpd1]
2 (2 for DPPM 0.02-0.04)
